Assign aptazyme ON/OFF ratio to each entry below.
B1: Pistol ribozyme (parent)
chain: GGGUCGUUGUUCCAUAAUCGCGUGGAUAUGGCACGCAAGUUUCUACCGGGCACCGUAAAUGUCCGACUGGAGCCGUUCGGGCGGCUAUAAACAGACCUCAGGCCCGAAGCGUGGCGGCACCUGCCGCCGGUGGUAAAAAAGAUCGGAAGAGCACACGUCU

# Variants of: B1
# runDescription: aptazyme ON/OFF ratio, guanine; higher = stronger switching; co-transcriptional cleavage with and without guanine

Entry U8A G9A U10G U11G C13G needs its aptazyme ON/OFF ratio filled in; supply it.
1.12

Entry U7C U8G G9C U10G C12U C13G needs its aptazyme ON/OFF ratio filled in; supply it.
1.14

Entry U8C G9C U10G U11G C12U needs its aptazyme ON/OFF ratio filled in; supply it.
1.09

Entry G9U U10G U11C C12A C13A needs its aptazyme ON/OFF ratio filled in; supply it.
1.34

Entry U8C U10A U11A C12G needs its aptazyme ON/OFF ratio filled in; supply it.
1.28

Entry U7A U8C U10A U11A C12U C13U needs its aptazyme ON/OFF ratio filled in; supply it.
1.17

Entry U7G U8C G9C U10A U11G C13A needs its aptazyme ON/OFF ratio filled in; supply it.
1.14

Entry U7G U8G G9U U10A C12U C13G needs its aptazyme ON/OFF ratio filled in; supply it.
1.09

Entry U7G G9A U11G needs its aptazyme ON/OFF ratio filled in; supply it.
1.64

Entry U7G U8A G9U U10C U11C C12G needs its aptazyme ON/OFF ratio filled in; supply it.
1.08

Entry U7C G9U U10C C12U C13U needs its aptazyme ON/OFF ratio filled in; supply it.
1.08

Entry U7G U8G G9C U10A C12A C13G needs its aptazyme ON/OFF ratio filled in; supply it.
1.04

Entry U8C G9A U10A U11C C13A needs its aptazyme ON/OFF ratio filled in; supply it.
1.05

Entry U7C U8G U10A U11G C13A needs its aptazyme ON/OFF ratio filled in; supply it.
1.11

Entry U7A U8C G9A U10G U11G C12A C13U needs its aptazyme ON/OFF ratio filled in; supply it.
1.27

Entry G9A U10C U11G C12A C13U needs its aptazyme ON/OFF ratio filled in; supply it.
1.21

Entry U8G G9A U10C U11A C12G C13A needs its aptazyme ON/OFF ratio filled in; supply it.
1.16

Entry U7A U8A U11A C12G C13G needs its aptazyme ON/OFF ratio filled in; supply it.
1.13

Entry U8A G9A U10G U11G C12A C13G needs its aptazyme ON/OFF ratio filled in; supply it.
1.27

Entry U7C U10A U11A C12G C13A needs its aptazyme ON/OFF ratio filled in; supply it.
1.11

Entry U7G U8G G9C U10G U11C C13G needs its aptazyme ON/OFF ratio filled in; supply it.
1.08

Entry U8G U10G U11A C13U needs its aptazyme ON/OFF ratio filled in; supply it.
1.33
